details: human liver microsomes 0.5 mg/mL, 1 uM compound, NADPH
Short version: Human Pred Cl. at least 0.6 L/H/kg is 1.0, less is 0.0.

[[record]]
compound = "COC(=O)N[C@H](C(=O)N[C@@H](Cc1ccccc1)[C@@H](O)CN(Cc1ccc(-c2ccccn2)cc1)NC(=O)[C@@H](NC(=O)OC)C(C)(C)C)C(C)(C)C [atazanavir, reference compound]"
label = 1.0

[[record]]
compound = "COC(=O)N[C@H](C(=O)N[C@@H](Cc1ccc(C#Cc2ccc(N3C[C@@H]4C[C@H]3CN4C3COC3)nc2)cc1)[C@@H](O)CN(Cc1c(F)cc(-c2ccn(C(F)F)n2)cc1F)NC(=O)[C@@H](NC(=O)OC)C(C)(C)C(F)(F)F)C(C)(C)C(F)(F)F"
label = 0.0

[[record]]
compound = "COC(=O)N[C@H](C(=O)N[C@@H](Cc1ccc(C#Cc2ccc(N3CCN(C)C(=O)C3)nc2)cc1)[C@@H](O)CN(Cc1c(F)cc(-c2ccn(C(F)F)n2)cc1F)NC(=O)[C@@H](NC(=O)OC)C(C)(C)C(F)(F)F)C(C)(C)C(F)(F)F"
label = 0.0

[[record]]
compound = "COC(=O)N[C@H](C(=O)N[C@@H](Cc1ccc(-c2cnn(C(F)F)c2)cc1)[C@@H](O)CN(Cc1c(F)cc(-c2ccn(C(F)F)n2)cc1F)NC(=O)[C@@H](NC(=O)OC)C(C)(C)C(F)(F)F)C(C)(C)C(F)(F)F"
label = 1.0

[[record]]
compound = "COC(=O)N[C@H](C(=O)N[C@@H](Cc1ccc(C#Cc2ccc(N3CC[N+]4([O-])CCOC[C@H]4C3)nc2)cc1)[C@@H](O)CN(Cc1c(F)cc(-c2ccn(C(F)F)n2)cc1F)NC(=O)[C@@H](NC(=O)OC)C(C)(C)C(F)(F)F)C(C)(C)C(F)(F)F (stereo partly shown)"
label = 0.0

[[record]]
compound = "COC(=O)N[C@H](C(=O)N[C@@H](Cc1ccc(C#Cc2cnc(N3CCNC(=O)C3)nc2)cc1)[C@@H](O)CN(Cc1c(F)cc(-c2ccn(C(F)F)n2)cc1F)NC(=O)[C@@H](NC(=O)OC)C(C)(C)C(F)(F)F)C(C)(C)C(F)(F)F"
label = 0.0

[[record]]
compound = "COC(=O)N[C@H](C(=O)N[C@@H](Cc1ccc(C#Cc2ccc(N3C[C@@H]4CN(C5COC5)C[C@@H]4C3)nc2)cc1)[C@@H](O)CN(Cc1c(F)cc(-c2ccn(C(F)F)n2)cc1F)NC(=O)[C@@H](NC(=O)OC)C(C)(C)C(F)(F)F)C(C)(C)C(F)(F)F"
label = 0.0


====

settings: rat, microsomes
Response field label takes yes (1) when Rat. Pred. Cl. is strictly below 0.5 L/H/kg and no (0) in all other cases.

[[record]]
smiles_string = "COC(=O)N[C@H](C(=O)N[C@@H](Cc1ccc(C#Cc2ccc(N3CC4CCC(C3)N4C3COC3)nc2)cc1)[C@@H](O)CN(Cc1c(F)cc(-c2cc[nH]n2)cc1F)NC(=O)[C@@H](NC(=O)OC)C(C)(C)C(F)(F)F)C(C)(C)C(F)(F)F"
label = "yes (1)"

[[record]]
smiles_string = "COC(=O)N[C@H](C(=O)N[C@@H](Cc1ccc(-c2ccc(N3CC4CCC(C3)N4C3COC3)nc2)cc1)[C@@H](O)CN(Cc1c(F)cc(-c2ccc(N3CC4CCC(C3)N4C3COC3)nc2)cc1F)NC(=O)[C@@H](NC(=O)OC)C(C)(C)C(F)(F)F)C(C)(C)C(F)(F)F"
label = "no (0)"

[[record]]
smiles_string = "COC(=O)N[C@H](C(=O)N[C@@H](Cc1ccc(C#Cc2ccc(N3CC4CCC(C3)N4C3COC3)nc2)cc1)[C@@H](O)CN(Cc1c(F)cc(-c2cc3n(n2)CCOC3)cc1F)NC(=O)[C@@H](NC(=O)OC)C(C)(C)C(F)(F)F)C(C)(C)C(F)(F)F"
label = "yes (1)"

[[record]]
smiles_string = "COC(=O)N[C@H](C(=O)N[C@@H](Cc1ccc(C#Cc2ccc(N3CC4COCC(C3)N4C)nc2)cc1)[C@@H](O)CN(Cc1c(F)cc(-c2ccn(C(F)F)n2)cc1F)NC(=O)[C@@H](NC(=O)OC)C(C)(C)C(F)(F)F)C(C)(C)C(F)(F)F"
label = "no (0)"

[[record]]
smiles_string = "COC(=O)N[C@H](C(=O)N[C@@H](Cc1ccc(C#Cc2cnc(N3CC4CCC(C3)N4C3COC3)nc2)cc1)[C@@H](O)CN(Cc1c(F)cc(-c2ccn(CC(F)F)n2)cc1F)NC(=O)[C@@H](NC(=O)OC)C(C)(C)C(F)(F)F)C(C)(C)C(F)(F)F"
label = "yes (1)"

[[record]]
smiles_string = "COC(=O)N[C@H](C(=O)NN(Cc1ccc(-c2ccn(C(F)F)n2)cc1)C[C@H](O)[C@H](Cc1ccc(C#Cc2ccc(N3CC4CCC(C3)N4C3COC3)nc2)cc1)NC(=O)[C@@H](NC(=O)OC)C(C)(C)C(F)(F)F)C(C)(C)C"
label = "yes (1)"

[[record]]
smiles_string = "COC(=O)N[C@H](C(=O)N[C@@H](Cc1ccc(-c2cnc(N3CC4CCC(C3)N4C3COC3)nc2)cc1)[C@@H](O)CN(Cc1c(F)cc(-c2ccn(C(F)F)n2)cc1F)NC(=O)[C@@H](NC(=O)OC)C(C)(C)C(F)(F)F)C(C)(C)C(F)(F)F"
label = "yes (1)"

[[record]]
smiles_string = "COC(=O)N[C@H](C(=O)N[C@@H](Cc1ccc(-c2cnc(N3CC4CCC(C3)N4C3COC3)nc2)cc1)[C@@H](O)CN(Cc1c(F)cc(-c2ccn(C3CC3)n2)cc1F)NC(=O)[C@@H](NC(=O)OC)C(C)(C)C(F)(F)F)C(C)(C)C(F)(F)F"
label = "yes (1)"


====

Reported Rat. Pred. Cl. is given for each of the following compounds.
Conditions: rat, microsomes
Experimental: Liver Microsomal Stability Protocol Test compounds and one control compound (verapamil) were tested in 3 different species in duplicate sets. Test compound concentration: 1 uM; Protein concentration: 0.5 mg/mL (for dog, rat, and human liver microsomes); Cofactor: NADPH-Regenerating system (NRS) solution; Time-points: 2, 12, 25, 45, and 65 minutes. […] After plates were vortexed, they were centrifuged for 30 minutes to remove proteins. […] In vitro measured t1/2 was used to calculate Clint values.
Assay endpoint: Rat. Pred. Cl. (L/H/kg)

[[record]]
smiles_string = "COC(=O)N[C@H](C(=O)N[C@@H](Cc1ccc(C#Cc2cnc(N3CC4CCC(C3)N4C3COC3)nc2)cc1)[C@@H](O)CN(Cc1c(F)cc(-c2ccn(C3CC3)n2)cc1F)NC(=O)[C@@H](NC(=O)OC)C(C)(C)C(F)(F)F)C(C)(C)C(F)(F)F"
limit_qualifier = "="
value = 0.32

[[record]]
smiles_string = "COC(=O)N[C@H](C(=O)N[C@@H](Cc1ccc(C#Cc2ccc(N3CC4COCC(C3)N4C3COC3)nc2)cc1)[C@@H](O)CN(Cc1c(F)cc(-c2ccccn2)cc1F)NC(=O)[C@@H](NC(=O)OC)C(C)(C)C(F)(F)F)C(C)(C)C(F)(F)F"
limit_qualifier = "="
value = 0.27

[[record]]
smiles_string = "COC(=O)N[C@H](C(=O)N[C@@H](Cc1ccc(C#Cc2ccc(N3CC4CCC(C3)N4C3COC3)nc2)cc1)[C@@H](O)CN(Cc1c(F)cc(-c2ccccn2)cc1F)NC(=O)[C@@H](NC(=O)OC)C(C)(C)C(F)(F)F)C(C)(C)C(F)(F)F"
limit_qualifier = "<"
value = 0.18

[[record]]
smiles_string = "COC(=O)N[C@H](C(=O)N[C@@H](Cc1ccc(C#Cc2ccc(N3CC4CCC(C3)N4C3COC3)nc2)cc1)[C@@H](O)CN(Cc1c(F)cc(-c2ccn(C(F)F)n2)cc1F)NC(=O)[C@@H](NC(=O)OC1COC1)C(C)(C)C)C(C)(C)C(F)(F)F"
limit_qualifier = "<"
value = 0.18

[[record]]
smiles_string = "COC(=O)N[C@H](C(=O)N[C@@H](Cc1ccc(-c2ccc3nc(N4CC5CCC(C4)N5C4COC4)ccc3n2)cc1)[C@@H](O)CN(Cc1c(F)cc(-c2ccn(C(F)F)n2)cc1F)NC(=O)[C@@H](NC(=O)OC)C(C)(C)C(F)(F)F)C(C)(C)C(F)(F)F"
limit_qualifier = "="
value = 0.19

[[record]]
smiles_string = "COC(=O)N[C@H](C(=O)N[C@@H](Cc1ccc(C#Cc2ccc(N3CC4COCC(C3)N4C)nc2)cc1)[C@@H](O)CN(Cc1c(F)cc(-c2ccn(C3CC3)n2)cc1F)NC(=O)[C@@H](NC(=O)OC)C(C)(C)C(F)(F)F)C(C)(C)C(F)(F)F"
limit_qualifier = "="
value = 2.1

[[record]]
smiles_string = "COC(=O)N[C@H](C(=O)NN(Cc1c(F)cc(-c2ccn(C(F)F)n2)cc1F)C[C@H](O)[C@H](Cc1ccc(-c2cnc(N3CC4CCC(C3)N4C3COC3)nc2)cc1)NC(=O)[C@@H](NC(=O)OC)C(C)(C)C(F)(F)F)C(C)(C)C"
limit_qualifier = "="
value = 0.36

[[record]]
smiles_string = "COC(=O)N[C@H](C(=O)N[C@@H](Cc1ccc(C#Cc2ccc(N3CC4CCC(C3)N4C3COC3)nc2)cc1)[C@@H](O)CN(Cc1c(F)cc(-c2ccc(F)cn2)cc1F)NC(=O)[C@@H](NC(=O)OC)C(C)(C)C(F)(F)F)C(C)(C)C(F)(F)F"
limit_qualifier = "<"
value = 0.18

[[record]]
smiles_string = "COC(=O)N[C@H](C(=O)N[C@@H](Cc1ccc(-c2ccc(N3CC4CCC(C3)N4C3COC3)nc2)cc1)[C@@H](O)CN(Cc1c(F)cc(-c2ccn(C)n2)cc1F)NC(=O)[C@@H](NC(=O)OC)C(C)(C)C)C(C)(C)C"
limit_qualifier = "="
value = 1.03

[[record]]
smiles_string = "COC(=O)N[C@H](C(=O)N[C@@H](Cc1ccc(C#Cc2cnc(N3CC4CCC(C3)N4C3COC3)nc2)cc1)[C@@H](O)CN(Cc1c(F)cc(-c2ccn(C(F)F)n2)cc1F)NC(=O)[C@@H](NC(=O)OC)C(C)(C)C(F)(F)F)C(C)(C)C(F)(F)F"
limit_qualifier = "="
value = 0.215

[[record]]
smiles_string = "COC(=O)N[C@H](C(=O)N[C@@H](Cc1ccc(C#Cc2ccc(N3CC4CCC(C3)N4C3COC3)nc2)cc1)[C@@H](O)CN(Cc1c(F)cc(-c2ccn(CC(C)(C)O)n2)cc1F)NC(=O)[C@@H](NC(=O)OC)C(C)(C)C(F)(F)F)C(C)(C)C(F)(F)F"
limit_qualifier = "="
value = 0.45

[[record]]
smiles_string = "COC(=O)N[C@H](C(=O)N[C@@H](Cc1ccc(-c2ccc(N3CC4CCC(C3)N4C3COC3)nc2)cc1)[C@@H](O)CN(Cc1c(F)cc(-c2ccn(CC(F)F)n2)cc1F)NC(=O)[C@@H](NC(=O)OC)C(C)(C)C(F)(F)F)C(C)(C)C(F)(F)F"
limit_qualifier = "="
value = 0.52

[[record]]
smiles_string = "COC(=O)N[C@H](C(=O)N[C@@H](Cc1ccc(C#Cc2ccc(N3CC4CCC(C3)N4C3COC3)nc2)cc1)[C@@H](O)CN(Cc1c(F)cc(-c2cc(OC3COC3)ccn2)cc1F)NC(=O)[C@@H](NC(=O)OC)C(C)(C)C(F)(F)F)C(C)(C)C(F)(F)F"
limit_qualifier = "="
value = 1.3

[[record]]
smiles_string = "COC(=O)N[C@H](C(=O)N[C@@H](Cc1ccc(-c2ccn(CC(F)F)n2)cc1)[C@@H](O)CN(Cc1c(F)cc(-c2cnc(N3CC4CCC(C3)N4C3COC3)nc2)cc1F)NC(=O)[C@@H](NC(=O)OC)C(C)(C)C(F)(F)F)C(C)(C)C(F)(F)F"
limit_qualifier = "="
value = 0.33

[[record]]
smiles_string = "COC(=O)N[C@H](C(=O)N[C@@H](Cc1ccc(C#Cc2cnc(N3CC4CCC(C3)N4C3COC3)nc2)cc1)[C@@H](O)CN(Cc1c(F)cc(-c2cnc(N3CC4CCC(C3)N4C3COC3)nc2)cc1F)NC(=O)[C@@H](NC(=O)OC)C(C)(C)C(F)(F)F)C(C)(C)C(F)(F)F"
limit_qualifier = "="
value = 0.53


Values from patent US10294234B2
